# credit: PubChem BioAssay (EPA / NIEHS)

biological target: Glycogen synthase kinase-3 beta (Homo sapiens) (UniProt P49841); test: NVS_ENZ_hGSK3b: NovaScreen (NVS) Enzymatic Assay for human Glycogen Synthase Kinase-3 beta (GSK3b) (AID 2283165)
Sequence (P49841 whole entry, looked up): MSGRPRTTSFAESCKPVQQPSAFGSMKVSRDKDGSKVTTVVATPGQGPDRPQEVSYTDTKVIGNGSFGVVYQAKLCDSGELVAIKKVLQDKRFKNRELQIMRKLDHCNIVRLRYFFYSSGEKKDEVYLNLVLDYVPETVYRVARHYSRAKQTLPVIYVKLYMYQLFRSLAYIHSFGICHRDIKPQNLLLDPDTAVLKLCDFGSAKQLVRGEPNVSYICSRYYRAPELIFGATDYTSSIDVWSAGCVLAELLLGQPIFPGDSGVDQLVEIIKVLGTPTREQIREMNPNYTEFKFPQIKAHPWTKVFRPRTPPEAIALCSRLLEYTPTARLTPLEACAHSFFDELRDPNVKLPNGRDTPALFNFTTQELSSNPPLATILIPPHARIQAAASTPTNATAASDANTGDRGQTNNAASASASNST
Records with an inconclusive call do not appear. Calls of active or inactive are those of the source. The calls were made as follows: active = hit-call score of the fitted dose curve at least 0.9, where 1 is the maximum; inconclusive = response in the unintended direction; inactive = score below 0.9.
One label from this list, please: T (active), F (inactive)

{"columns": ["Structure As Smiles", "Category"],
 "data": [
  ["O=c1c(O)c(-c2ccc(O)c(O)c2)oc2cc(O)cc(O)c12", "T"]
]}

Task: GET /call?item= CCCCc1ccc2c(n1)[C@@H](c1ccc(OC)cc1C[C@H](C)C(=O)O)[C@H](C(=O)O)[C@H]2c1ccc2c(c1)OCO2 returns the recorded outcome of this test.
Result: F

Task: GET /call?item= NCCO returns the recorded outcome of this test.
Result: F

Task: GET /call?item= FC(F)(F)C(F)(F)C(F)(F)C(F)(F)C(F)(F)C(F)(F)CCI returns the recorded outcome of this test.
Result: F

Task: GET /call?item= CCCc1cc(=O)[nH]c(=S)[nH]1 returns the recorded outcome of this test.
Result: F

Task: GET /call?item= CC(C)c1ccc(C(=O)N=C(N)N)cc1S(C)(=O)=O returns the recorded outcome of this test.
Result: F
